Test: ACEA_ER_80hr: ACEA Biosciences xCELLigence Real-Time Cell Analysis on Estrogen Receptor Agonism for Proliferation (AID 2282667)
Settings: T47D proliferation, impedance (xCELLigence), 80 h
Procedure: ACEA_ER is a cell-based, single-readout assay that uses T47D, a human breast cell line, with measurements taken at 80 hours after chemical dosing in a 96-well plate, although TO2 (mc0.srcf) used a 384-well plate. Differences in plate size can be ignored given data normalization.ACEA_ER_80hr is one of two assay component(s) measured or calculated from the ACEA_ER assay. […]
Results filed as inconclusive are left out. Active and inactive are the calls of the source. Rule for the calls: active = hit-call score of the fitted dose curve at least 0.9, where 1 is the maximum; inconclusive = response in the unintended direction; inactive = score below 0.9.
quantityName: AC50

Take a look at these entries with their results.
COC(=O)C1CCC(C(=O)OC)CC1 (stereo not drawn) ... inactive
O=C(O)C(F)(F)C(F)(F)C(F)(F)C(F)(F)F ... inactive
CCC(=O)OCCc1ccccc1 ... inactive
CCc1c(Br)c(Br)c(Br)c(Br)c1Br ... inactive
CC(=O)Nc1ccc(N=Nc2cc(C)ccc2O)cc1 ... inactive

Query :: # get_value(readout='AC50', item= Oc1ccc(Nc2ccccc2)cc1 )
Result :: inactive

Query :: // query: C#C[C@]1(O)CC[C@H]2[C@@H]3CCc4cc(OC)ccc4[C@H]3CC[C@@]21C
Result :: 5.4 nM (active)

Query :: Let us now turn to O[Si](c1ccccc1)(c1ccccc1)c1ccccc1
Result :: inactive

Query :: Then what about the molecule CC(C)(C)C(=O)CC(=O)C(F)(F)C(F)(F)C(F)(F)F ?
Result :: inactive

Query :: # iterate: CC(Cc1ccc(O)c(O)c1)C(C)Cc1ccc(O)c(O)c1 (stereo not drawn)
Result :: inactive

Query :: Next entry: FC(F)(F)C(F)(F)C(F)(F)C(F)(F)C(F)(F)C(F)(F)C(F)(F)Br
Result :: inactive

Query :: Same question, Nc1ccc(S(=O)(=O)Nc2nccs2)cc1 this time
Result :: inactive

Query :: // same read-out, input: Cc1cc(C)cc(O)c1
Result :: inactive

Reference source for all entries: PubChem BioAssay (EPA / NIEHS)
